Biological target: Fatty acid synthase (Homo sapiens, UniProt P49327)
Sequence (P49327 whole entry): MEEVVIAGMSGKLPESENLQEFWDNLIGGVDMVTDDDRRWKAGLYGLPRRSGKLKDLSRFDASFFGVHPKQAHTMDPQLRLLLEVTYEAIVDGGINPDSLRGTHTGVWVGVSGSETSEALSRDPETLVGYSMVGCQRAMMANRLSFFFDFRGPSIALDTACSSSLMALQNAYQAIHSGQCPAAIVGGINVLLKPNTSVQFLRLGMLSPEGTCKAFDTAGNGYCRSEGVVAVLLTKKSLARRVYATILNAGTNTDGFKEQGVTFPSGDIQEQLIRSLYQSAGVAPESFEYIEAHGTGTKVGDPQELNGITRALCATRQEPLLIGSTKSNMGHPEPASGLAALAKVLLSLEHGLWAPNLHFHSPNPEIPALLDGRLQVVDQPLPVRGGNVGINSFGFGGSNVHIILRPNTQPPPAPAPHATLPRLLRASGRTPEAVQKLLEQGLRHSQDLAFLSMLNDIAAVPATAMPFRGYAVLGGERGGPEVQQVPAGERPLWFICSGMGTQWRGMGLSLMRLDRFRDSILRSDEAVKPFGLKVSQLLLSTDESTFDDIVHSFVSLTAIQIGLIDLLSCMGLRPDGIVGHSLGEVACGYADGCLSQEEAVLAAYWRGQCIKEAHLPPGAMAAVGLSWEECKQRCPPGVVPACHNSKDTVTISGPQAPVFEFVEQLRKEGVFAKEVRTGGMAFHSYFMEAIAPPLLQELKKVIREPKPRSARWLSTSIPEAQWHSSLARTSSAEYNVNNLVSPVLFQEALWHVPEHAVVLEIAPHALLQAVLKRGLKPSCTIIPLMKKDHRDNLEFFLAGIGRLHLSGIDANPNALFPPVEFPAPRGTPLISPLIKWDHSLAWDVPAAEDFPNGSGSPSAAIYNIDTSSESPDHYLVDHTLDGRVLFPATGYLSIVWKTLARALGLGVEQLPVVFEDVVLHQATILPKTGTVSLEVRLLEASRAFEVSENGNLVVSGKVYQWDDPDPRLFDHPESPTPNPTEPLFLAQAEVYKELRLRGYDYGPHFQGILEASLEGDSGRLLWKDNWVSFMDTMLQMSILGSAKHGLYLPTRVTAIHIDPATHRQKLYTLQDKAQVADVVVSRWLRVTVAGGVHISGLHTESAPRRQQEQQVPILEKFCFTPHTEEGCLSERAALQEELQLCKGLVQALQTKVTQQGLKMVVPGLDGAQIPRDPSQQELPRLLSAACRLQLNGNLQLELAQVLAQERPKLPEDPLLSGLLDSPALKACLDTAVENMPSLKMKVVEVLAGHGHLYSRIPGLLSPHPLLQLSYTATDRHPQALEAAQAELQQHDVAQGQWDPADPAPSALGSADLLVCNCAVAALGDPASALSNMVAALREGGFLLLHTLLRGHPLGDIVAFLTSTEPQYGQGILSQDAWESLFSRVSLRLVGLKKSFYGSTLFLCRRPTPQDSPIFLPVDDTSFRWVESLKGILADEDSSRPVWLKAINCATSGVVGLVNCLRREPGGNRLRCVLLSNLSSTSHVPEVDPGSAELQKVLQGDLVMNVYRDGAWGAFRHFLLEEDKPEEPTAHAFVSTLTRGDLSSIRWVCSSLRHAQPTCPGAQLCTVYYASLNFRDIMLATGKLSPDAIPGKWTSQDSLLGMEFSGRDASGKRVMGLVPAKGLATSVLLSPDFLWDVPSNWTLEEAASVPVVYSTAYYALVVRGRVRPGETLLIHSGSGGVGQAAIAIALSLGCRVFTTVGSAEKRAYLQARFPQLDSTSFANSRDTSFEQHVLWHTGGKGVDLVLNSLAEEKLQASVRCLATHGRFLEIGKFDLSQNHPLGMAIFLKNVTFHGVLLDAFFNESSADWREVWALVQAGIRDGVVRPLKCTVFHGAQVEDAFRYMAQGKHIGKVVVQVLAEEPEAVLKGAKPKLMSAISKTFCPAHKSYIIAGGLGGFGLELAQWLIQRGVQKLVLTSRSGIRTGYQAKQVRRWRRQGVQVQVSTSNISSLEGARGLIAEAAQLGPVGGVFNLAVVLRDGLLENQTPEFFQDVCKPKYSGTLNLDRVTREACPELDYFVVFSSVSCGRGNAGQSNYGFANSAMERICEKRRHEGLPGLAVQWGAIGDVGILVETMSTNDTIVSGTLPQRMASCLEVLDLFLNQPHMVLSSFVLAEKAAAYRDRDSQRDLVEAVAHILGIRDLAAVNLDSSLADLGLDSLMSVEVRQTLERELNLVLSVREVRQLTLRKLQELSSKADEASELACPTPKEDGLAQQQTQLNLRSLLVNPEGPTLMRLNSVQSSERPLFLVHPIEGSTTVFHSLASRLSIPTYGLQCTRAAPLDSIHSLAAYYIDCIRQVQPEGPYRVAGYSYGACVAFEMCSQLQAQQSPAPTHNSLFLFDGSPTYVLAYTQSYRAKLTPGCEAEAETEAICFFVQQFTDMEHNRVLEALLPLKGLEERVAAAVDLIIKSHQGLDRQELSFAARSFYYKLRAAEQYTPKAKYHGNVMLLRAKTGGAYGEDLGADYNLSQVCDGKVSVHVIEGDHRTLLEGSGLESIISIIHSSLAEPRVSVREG
Experiment: inhibition of human FAS-TE enzyme activity – biochemical, kinetic fluorescence intensity, dose response (AID 624326);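 also: rate of fluorescence rise from hydrolysis of a fluorogenic O-methyl fluorescein ester substrate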
Assay type: functional
Calls of active or inactive are those of the source. Rule as the data show it: active = IC50 of 20 µM or less and inactive = more.
property: IC50

Field: example entries. Status: answers known.
{"compound": "CS(=O)(=O)c1ccc(-c2csc(-c3cccnc3)n2)cc1", "IC50": "7.66 µM (active)"}
{"compound": "CC(=O)OCCNc1cc(Sc2nc3ccccc3[nH]2)c2nonc2c1[N+](=O)[O-]", "IC50": "2.59 µM (active)"}
{"compound": "Cc1ccc2cc3cc(C(=O)N4CCCCC4C)oc3nc2c1 (stereo not drawn)", "IC50": "4.44 µM (active)"}
{"compound": "O=C(N/C(=C/C=C\\c1ccccc1)C(=O)N1CCOCC1)c1ccc(Br)cc1", "IC50": "7.63 µM (active)"}
{"compound": "CCN(CC(=O)NCc1cccs1)S(=O)(=O)c1ccc([N+](=O)[O-])cc1", "IC50": "17.7 µM (active)"}
{"compound": "CS(=O)(=O)N1CCc2cc(-c3csc(NC(=O)Cc4ccccc4)n3)ccc21", "IC50": "5.12 µM (active)"}

What measured IC50 goes with Cc1cc(C(=O)OCC(=O)Nc2cccc([N+](=O)[O-])c2)c(C)o1 ?
17.2 µM (active)

Look up IC50 for this compound: Cn1c(-c2ccc(F)cc2)cnc1NCc1cccc([N+](=O)[O-])c1
9.83 µM (active)
